system under test: T1, recombinant human A33 antigen (human, UniProt Q99795 22-233, limits assumed)
T1 construct: also called human antigen A33; immobilized recombinant human A33
T1 sequence (looked up): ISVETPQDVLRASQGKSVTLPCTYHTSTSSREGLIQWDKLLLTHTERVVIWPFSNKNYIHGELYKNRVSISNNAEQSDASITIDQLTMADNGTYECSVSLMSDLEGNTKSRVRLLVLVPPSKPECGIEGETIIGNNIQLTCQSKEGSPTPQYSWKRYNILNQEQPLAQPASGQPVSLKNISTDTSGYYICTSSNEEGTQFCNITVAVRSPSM
protocol details: SPR (Biacore), recombinant human A33 immobilized on CM5 chip, Fab injected at 75-200 nM
measured property: kon (M⁻¹ s⁻¹)
The reply should be a number in M⁻¹ s⁻¹, with the unit left off.

Report kon for humanized Fab F (human VLF and human VHF) (Fab, V domains shown) VH: EVQVMESGGGLVKPGGSLRLSCAASGIGFSHYGISWVRQAPGKGLEWVSYIYPNYGSVDYASSVNGRFTISLDNAQNSLYLQMNSLRAEDTAVYYCARDRGYYSGSRGTRLDLWGQGTLVTVSS VL: ELQMTQSPSSLSASVGDRVTITCLASEFLFNGVSWYQQKPGKAPKFLIYGASNLESGVPSRFSGSGSGTDFTLTISSLQPEDVATYYCLGGYSGSSGLTFGGGTKVEIK please.
192000

Report kon for rabbit Fab 1 (rabbit VH1, VL1; chimeric rabbit/human Fab) (Fab, V domains shown, Soluble Fab from E. coli; also called rabbit 1; rabbit clone 1) VH: QQQVMESGGGLVTLGGSLTLTCKASGIDFSNNGISWVRQAPGKGLEWILYIYPDYGSTDYASWVNGRFTISLDNAQNTVFLQMTSLTAADTATYFCARDRGAYAGSRGTRLDLWGQGTLVTVSS VL: EFDMTQTPPSLSASVGETVRIRCLASEFLFNGVSWYQQKPGKPPKFLISGASNLESGVPPRFSGSGSGTDYTLTIGGVQAEDVATYYCLGGYSGSSGLTFGAGTNVEIK please.
307000

Report kon for humanized Fab B (human VLB and human VHB) (Fab, V domains shown) VH: EVQVMESGGGLVKPGGSLRLSCAASGIGFSHYGISWVRQAPGKGLEWVSYIYPNYGSVDYASSVNGRFTISLDNAQNSLYLQMNSLRAEDTAVYFCARDRGYYSGSRGTRLDLWGQGTLVTVSS VL: ELQMTQSPSSLSASVGDRVTITCLASEFLFNGVSWYQQKPGKVPKFLIYGASNLESGVPSRFSGSGSGTDFTLTISSLQPEDVATYYCLGGYSGSSGLTFGGGTKVEIK please.
352000
